- Test system: TK-10
- assay_remarks: NCI tumour cell line growth inhibition, 48 h
The source made the active and inactive calls. Rule as the data show it: active = GI50 up to about 1.1 µM and inactive = higher.
Write down one outcome, taken from 1 (active), 0 (inactive)

Answered examples (6):
>  <compound>
COC(=O)Nc1nc2cc(NC(=O)c3ccc(I)cc3)ccc2[nH]1

>  <label_class>
0

$$$$
>  <compound>
Cc1ccc(NC(=O)CCc2nnc(N)o2)cc1

>  <label_class>
0

$$$$
>  <compound>
COc1ccccc1C(=O)OCC1CCCN2CCCCC12 (stereo not given)

>  <label_class>
0

$$$$
>  <compound>
CN(C)CCn1c(=O)c2ccc3c4c(nn3CCN(C)C)c3ccccc3n(c1=O)c24

>  <label_class>
1

$$$$
>  <compound>
COc1ccc(C2Oc3c(cccc3OC)C=C2[N+](=O)[O-])cc1OC (stereo not given)

>  <label_class>
0

$$$$
>  <compound>
CCCCNC1CCC2(SCCS2)c2[nH]c3ccccc3c21 (stereo not given)

>  <label_class>
0

$$$$

Exercise: # fetch the recorded call for NC(=S)Nc1nc(=S)[nH]c2[nH]ccc12 here
Solution: 0

Exercise: # fetch the recorded call for CC(=O)NNc1nc(C)c(C(/C=C/c2cccc([N+](=O)[O-])c2)=N/NC(=S)NN)s1 here
Solution: 0

Exercise: # fetch the recorded call for CCOP(=O)(Cc1nc(C#N)c(N)o1)OCC here
Solution: 0

Exercise: # fetch the recorded call for COc1cc(/C=C2\CC3C4CC[C@H]5C[C@@H](O)CC[C@]5(C)C4CC[C@]3(C)\C2=N\O)cc(OC)c1OC (stereo not given in full) here
Solution: 0

Exercise: # fetch the recorded call for C[N+](C)(C)CC1CCCC1=O (stereo not given) here
Solution: 0

Exercise: # fetch the recorded call for CCN(CC)/[N+]([O-])=N/OS(=O)(=O)N(C)C here
Solution: 0

Exercise: # fetch the recorded call for O=c1cc(-c2ccccc2)[nH]c2ccc(S)cc12 here
Solution: 0

Exercise: # fetch the recorded call for CC(=O)OC1C[C@H]2C(OC(=O)c3ccccc3)C3C4(OC(C)=O)COC4C[C@H](OC(C)=O)[C@@]3(C)C(OC(C)=O)[C@H](OC(C)=O)C(=C1C)C2(C)C (stereo not given in full) here
Solution: 0

Exercise: # fetch the recorded call for C[N+]1(C)C/C(=C\c2ccc(O)cc2)C(=O)/C(=C/c2ccc(O)cc2)C1 here
Solution: 0

---

- Tested on: Malme-3M
- assay_remarks: NCI tumour cell line growth inhibition, 48 h
The source made the active and inactive calls. Rule as the data show it: active = GI50 up to about 1.1 µM and inactive = higher.
We begin with a simple list: items and their reported GI50.

Solved entries:
>  <molecule>
COC(=O)Nc1nc2cc(NC(=O)c3ccc(I)cc3)ccc2[nH]1

>  <GI50>
72.6 µM (inactive)

$$$$
>  <molecule>
CC1CC(N2CCOCC2)=Nc2ccccc2N1C (stereo not drawn)

>  <GI50>
56.4 µM (inactive)

$$$$
>  <molecule>
CN(C)c1ccc(Cc2cc3c(O)ccc(O)c3cc(Cc3ccc(N(C)C)cc3)c2=O)cc1

>  <GI50>
20.3 µM (inactive)

$$$$
>  <molecule>
O=C(c1cccc2ccccc12)C1(Br)S(=O)(=O)OCCOS1(=O)=O

>  <GI50>
> 100 µM (inactive)

$$$$
>  <molecule>
O=C1/C(=C/c2ccc3c(c2)OCO3)CCC1CN1CCOCC1 (stereo not drawn)

>  <GI50>
7.31 µM (inactive)

$$$$

Exercise: Need GI50 of Cc1nc(-c2ccc(Cl)cc2)cn2c1nc1ccccc12 , thanks.
Solution: > 100 µM (inactive)

Exercise: Need GI50 of CCN1CCN(c2nc3ccc([N+](=O)[O-])cc3nc2C(=O)c2ccccc2)CC1 , thanks.
Solution: 13.1 µM (inactive)

Exercise: Need GI50 of CC(C)CCCC(C)[C@H]1CC[C@H]2N/C(=N/c3ccccc3)CCC[C@]12C (stereo partly drawn) , thanks.
Solution: 2.67 µM (inactive)

---

- System: U-251
- assay_remarks: NCI tumour cell line growth inhibition, 48 h
Calls of active or inactive are those of the source. No stated cut-off is given here; in the data, active = GI50 up to about 1.1 µM and inactive = higher.
Write down one outcome, taken from T (active), F (inactive)

Answered examples (2):
>  <compound>
Cc1cc(C)nc(NS(=O)(=O)c2ccc(Nc3c4ccccc4nc4c(C(=O)N5CCN(CCO)CC5)cccc34)cc2)n1

>  <tested_on>
U-251

>  <label_class>
F

$$$$
>  <compound>
Nc1ncnc2c1ccn2C1OC2COP(=O)(O)OC2C1O (stereo not drawn)

>  <tested_on>
U-251

>  <label_class>
T

$$$$

Now let's try a different one.
Exercise: # fetch the recorded call for O=C(NC1(c2cc3ccccc3s2)CCCCC1)C1CCC1 here
Solution: F

---

We begin with a simple list: items and their reported GI50.
- System: MOLT-4
- assay_remarks: NCI tumour cell line growth inhibition, 48 h
Activity calls are given as the source filed them. No stated cut-off is given here; in the data, active = GI50 up to about 1.1 µM and inactive = higher.

>  <molecule>
C[N+]1(C)C/C(=C\c2ccc(O)cc2)C(=O)/C(=C/c2ccc(O)cc2)C1

>  <tested_on>
MOLT-4

>  <result_value>
47.4 µM (inactive)

$$$$
>  <molecule>
CC(=O)NC1C(OCc2ccccc2)OC(CO)C(O)C1OCC(=O)NC(C)C(=O)NC(CCC(=O)NCCCCCC(=O)Nc1ccc2c(c1)CN1C(=O)c3ccccc3C1=N2)C(N)=O (stereo not drawn)

>  <tested_on>
MOLT-4

>  <result_value>
42.1 µM (inactive)

$$$$
>  <molecule>
CCN(CC)CCNc1nc(N)c(C#N)c(C#N)c1C#N

>  <tested_on>
MOLT-4

>  <result_value>
> 10 µM (inactive)

$$$$
>  <molecule>
CC(C)(C)C#COC(=O)c1ccccc1

>  <tested_on>
MOLT-4

>  <result_value>
> 100 µM (inactive)

$$$$
>  <molecule>
C=CCN1C(=O)CS/C1=N\NC(=O)CSc1nc2ccccc2c(=O)n1CC

>  <tested_on>
MOLT-4

>  <result_value>
> 100 µM (inactive)

$$$$
>  <molecule>
CC(C)(C)OC(=O)N1CCc2c(n(C/C=C/c3ccccc3)[nH]c2=O)C1

>  <tested_on>
MOLT-4

>  <result_value>
33.6 µM (inactive)

$$$$
>  <molecule>
O=C(c1cc(Cl)ccc1Cl)N1CCN(c2ccc(Cl)c(Cl)c2)CC1

>  <tested_on>
MOLT-4

>  <result_value>
20.6 µM (inactive)

$$$$

# context switch: different molecule, same GI50
Exercise: # query: GI50 | item Nc1ncnc2c1ncn2C1OC(CSC(F)F)C(O)C1O (stereo not drawn) | system: MOLT-4
Solution: > 100 µM (inactive)

---

- System: SF-539
- assay_remarks: NCI tumour cell line growth inhibition, 48 h
Calls of active or inactive are those of the source. Cut-off read from the data, not from the text of the source: active = GI50 up to about 1.1 µM and inactive = higher.
Write down one outcome, taken from y (active), n (inactive)

>  <compound>
O=C(CSCC(=O)N/N=C\c1ccc(F)cc1F)N/N=C\c1ccc(F)cc1F

>  <tested_on>
SF-539

>  <label_class>
n

$$$$
>  <compound>
Clc1nc(Cl)c(Cc2ccccc2)c(Cl)n1

>  <tested_on>
SF-539

>  <label_class>
n

$$$$
>  <compound>
CC1=CC(=O)/C(=C/n2c(=S)[nH]c3cc(C)ccc32)C(=O)O1

>  <tested_on>
SF-539

>  <label_class>
n

$$$$
>  <compound>
O=C(/C=C/c1ccc(O)c(-c2cc(C(=O)/C=C/c3ccc(O)cc3)c(O)cc2O)c1)c1ccc(O)cc1O

>  <tested_on>
SF-539

>  <label_class>
n

$$$$
>  <compound>
Nc1nc(O)c2c(n1)NCN(CCCN1CCOCC1)C2

>  <tested_on>
SF-539

>  <label_class>
n

$$$$

Exercise: # fetch the recorded call for C[N+]1(C)C/C(=C\c2ccc(O)cc2)C(=O)/C(=C/c2ccc(O)cc2)C1 here
Solution: n

---

- System: NCI-H23
- assay_remarks: NCI tumour cell line growth inhibition, 48 h
Activity calls are given as the source filed them. Cut-off read from the data, not from the text of the source: active = GI50 up to about 1.1 µM and inactive = higher.
Write down one outcome, taken from Yes (active), No (inactive)

>  <molecule>
CCOc1ccc2nc(NC(=O)C(=O)C(C#N)CC(C)(C)C=O)sc2c1 (stereo not given)

>  <tested_on>
NCI-H23

>  <label_class>
No

$$$$
>  <molecule>
COC(=O)C1=C(C)NC2=C(C(=O)c3ccccc32)C1c1c[nH]nc1-c1ccccc1 (stereo not given)

>  <tested_on>
NCI-H23

>  <label_class>
No

$$$$
>  <molecule>
Nc1nc(Cl)cc(NCC2(CO)CC(CCCCc3ccccc3)C2)n1 (stereo not given)

>  <tested_on>
NCI-H23

>  <label_class>
No

$$$$
>  <molecule>
CCOC(=O)C1=C(O)C(=O)c2cc(OC)ccc2C1=O

>  <tested_on>
NCI-H23

>  <label_class>
No

$$$$

Exercise: # fetch the recorded call for COc1cc2c(c(O)c1OC)C(O)C1CCC(=O)N1C2c1cccc2ccccc12 (stereo not given) here
Solution: No

Exercise: # fetch the recorded call for CC1OC1C(=O)C1(O)C(C)C(O)C23OC2(C(O)c2c(O)cccc2C3=O)C1O (stereo not given) [CERVICARCIN] here
Solution: Yes

Exercise: # fetch the recorded call for CC(=O)Nc1ccc(C(=O)NN2C(=O)C(Cl)C2c2ccc([N+](=O)[O-])cc2)cc1 (stereo not given) here
Solution: No

Exercise: # fetch the recorded call for CC1CC(N2CCOCC2)=Nc2ccccc2N1C (stereo not given) here
Solution: No

Exercise: # fetch the recorded call for C/C(=N\N=C(\N)S)c1ccc(Oc2ccccc2)cc1 here
Solution: No

Exercise: # fetch the recorded call for CCSCCCCC(c1ccc(O)cc1)C(C)(CC)c1ccc(O)cc1 (stereo not given) here
Solution: No

Exercise: # fetch the recorded call for CNC(=O)CC1NC(=O)c2csc(n2)-c2ccc(-c3nc(C4=NC(C(=O)N5CCCC5C(N)=O)CO4)cs3)nc2-c2csc(n2)-c2csc(n2)C(C(C)C)NC(=O)CNC(=O)c2csc(n2)C(C(C)C)NC(=O)c2nc1sc2C (stereo not given) here
Solution: Yes

Exercise: # fetch the recorded call for CC(=O)OC1[C@@H](OC(C)=O)CN(OCc2ccccc2)C[C@H]1OC(C)=O (stereo not given in full) here
Solution: No

Exercise: # fetch the recorded call for CN(N=O)C(=N)NC(=O)c1ccccc1 here
Solution: No

Exercise: # fetch the recorded call for CC/C=C/C(CC)C/C(C)=C\[C@]1(CC)C[C@H](CC)[C@H](CC(=O)O)OO1 (stereo not given in full) here
Solution: No

Exercise: # fetch the recorded call for CN1CN(c2ccccc2)C2(CCN(Cc3csc4ccccc34)CC2)C1=O here
Solution: No

Exercise: # fetch the recorded call for CC(=O)c1cccc(Nc2nc3ccccc3c3[nH]c4ccccc4c23)c1 here
Solution: No

Ref: ChEMBL document CHEMBL1201862
